tested_target: AMP-activated protein kinase, AMPK (Homo sapiens) (UniProt P54646+O43741+P54619+Q9UGJ0+Q9Y478+Q13131+Q9UGI9)
experiment_summary: AMP-dependent Kinase enzyme assay. An in vitro enzyme assay that detects ADP turnover that is directly proportional to AMPK activity. This uses naive AMPK that is activated during the assay with MK-8722
Assay type: functional
Design: scale not given: direction of the effect not stated beside the values
condition_parameters: 30 µM

compound: CC(C(=O)Nc1cccc(C(F)(F)F)c1)N(C)CCN1CCOCC1 (stereo not drawn)
Percent Effect (%): 8.76
--
compound: Cn1ccnc1-c1cn(CCCc2nnc(N)s2)nn1
Percent Effect (%): -15.1
--
compound: Cc1noc(C(C)C)c1C(=O)N1CCC(n2cccn2)CC1
Percent Effect (%): 4.03
--
compound: O=C1CCCCN1Cc1cccc(OC(F)F)c1
Percent Effect (%): 11.1
--
compound: CC(C)(CNC(=O)c1ccco1)CNC(=O)c1ccco1
Percent Effect (%): -2.53
--
compound: CN1CCC(c2n[nH]c(=O)n2-c2cccc(Cl)c2)CC1
Percent Effect (%): 65.1
--
compound: COc1ccc(Cl)cc1C(=O)N1C[C@@H](NC(=O)N(C)C)[C@H](C(C)C)C1
Percent Effect (%): 2.28
--
compound: CC(C)c1cc(NC(CCO)c2ccccc2)n2nccc2n1 (stereo not drawn)
Percent Effect (%): 13.4
--
compound: OC(CNCc1nnc2ccccn12)c1ccc2c(c1)OCO2 (stereo not drawn)
Percent Effect (%): 9.33
--
compound: CCNC(=O)c1ccc(NC(=O)N(C)Cc2cc(C)on2)cc1
Percent Effect (%): 16.8
--
compound: CC(=O)NCCc1cc2nc(-c3ccncc3)ccn2n1
Percent Effect (%): 17.4
--
compound: O=C(c1cnco1)N1CCC(Cc2cccc3ncccc23)CC1
Percent Effect (%): 5.42
--
compound: CC(C(N)=O)N1CCN(c2ncc(Br)cn2)CC1 (stereo not drawn)
Percent Effect (%): -3.12
--
compound: COc1ccc(Br)cc1S(=O)(=O)N(C)Cc1ccc(N(C)C)cc1
Percent Effect (%): -1.52
--
compound: CCN(CC)CCNCc1cc(O)c2cc(C)ccc2n1
Percent Effect (%): 0.484
--
compound: Cc1c(F)cccc1S(=O)(=O)N(C)CC(C)O (stereo not drawn)
Percent Effect (%): 1.59
--
compound: CCc1nnc(CN2CC(n3cccn3)C2)o1
Percent Effect (%): -3.56
--
compound: CCOc1ccccc1-n1c(C2CCC2)n[nH]c1=O
Percent Effect (%): 13.5
--
compound: COC(=O)CC1CN(Cc2ccn(-c3ccc(F)cc3)n2)CCO1 (stereo not drawn)
Percent Effect (%): -6.96
--
compound: CC(=O)N1CCCC1(C(=O)N1CCCC1)c1cnccn1 (stereo not drawn)
Percent Effect (%): -0.265
--
compound: Cc1nc(NC(=O)c2c3c(nn2C2CCS(=O)(=O)C2)CCC3)sc1C (stereo not drawn)
Percent Effect (%): -4
--
compound: Fc1cc(CCNc2ccc3nccn3n2)c2c(c1)COCO2
Percent Effect (%): 17.6
--
compound: CC(C)N1CCC(NC(=O)c2cn(-c3ccc(F)cc3)nn2)C1 (stereo not drawn)
Percent Effect (%): -3.78
--
compound: Cc1cc(N2CCC3(CCCN(CCO)C3=O)C2)nc(C)c1C#N (stereo not drawn)
Percent Effect (%): 14.2
--
compound: CCCS(=O)(=O)N1CCC(c2ccc(OC)cc2)CC1
Percent Effect (%): 2.67
--
compound: CC1(c2ncc(CN3CCSCC3)cn2)CCCCO1 (stereo not drawn)
Percent Effect (%): -1.61
--
compound: CCc1cc(N2CCC(NCc3ccc(C)o3)CC2)ncn1
Percent Effect (%): 6.83
--
compound: O=C(NCc1nnc2n1CCC2)c1cccc(Br)c1
Percent Effect (%): 3.99
--
compound: Cc1ccc(C(C(=O)NC(C)(C)CN2CCCC2)N(C)C)cc1 (stereo not drawn)
Percent Effect (%): -22.5
--
compound: O=C(NCC1CCOC1)c1cc(-c2cccc(Cl)c2)[nH]n1 (stereo not drawn)
Percent Effect (%): 7.17
--
compound: COc1ccccc1C(C)(C)NC(=O)c1ccc(F)c(NC(C)=O)c1
Percent Effect (%): -4.2
--
compound: COc1ccc2c(c1)CCCC2CC(=O)NCC(=O)O (stereo not drawn)
Percent Effect (%): 3.73
--
compound: COC(=O)[C@@H]1C[C@@H](O)CN1Cc1ccn(-c2ccc(F)cc2)n1
Percent Effect (%): -3.45
--
compound: CC(NC(=O)C1CC1)C(=O)N(C)Cc1ccsc1 (stereo not drawn)
Percent Effect (%): -1.9
--
compound: Cc1c(C(=O)NCCC(=O)N2CCCC2)cccc1-c1ccccn1
Percent Effect (%): 13.9
--
compound: CN1C(=O)[C@H]2CC[C@@H]1CN(C(=O)Nc1cccc3ccccc13)C2
Percent Effect (%): -18.9
--
compound: CCC[C@@H]1CN(Cc2cnc(-c3cccs3)nc2)C[C@H]1C(=O)O
Percent Effect (%): -8.24
--
compound: Cc1ccc(N2CCCN(C(=O)CCCn3ccnc3C)CC2)nn1
Percent Effect (%): -0.453
--
compound: CCCN1C(=O)[C@H]2CC[C@@H]1CN(S(=O)(=O)c1cccc(Cl)c1)C2
Percent Effect (%): 7.5
--
compound: CC(C)c1nc(C2CCCN2CCNS(C)(=O)=O)no1 (stereo not drawn)
Percent Effect (%): 9.75
--
compound: Cn1cc(S(=O)(=O)N(Cc2ccc(F)cc2F)C2CC2)cc1C(N)=O
Percent Effect (%): 3.23
--
compound: CCOc1ccccc1C(C(=O)O)N(C)Cc1nc(C)c[nH]1 (stereo not drawn)
Percent Effect (%): 7.59
--
compound: COCCN1CCN(Cc2coc(-c3ccccc3Cl)n2)CC1
Percent Effect (%): -1.56

The measurements presented in this section are drawn from ChEMBL document CHEMBL3988442.
